Data origin: patent US20260297129A1

experiment-description: Protease stability in simulated intestinal fluids (FaSSIF) (Table 7)
Assay type: in vitro ADME
cond: fassif with pancreatin, 120 min, 37° C., read-out: Remaining percentage of peptide compound, FaSSIF 120 (min)
Numbered stars: 1 amine (or outer) side, 2 acyl side, 3 side chain; on linkers, the order of the positions; unused ones are H or OH. Bridge positions count the residues as written; N and C are the ends. Square brackets hold non-standard residues; d marks the D form. Peptide text beside a SMILES is read from it. * marks the point of attachment. Lys(Me,(CH2)4NMe(CH2)4CO) = CN(CCCCC(=O)[*:3])CCCCN(C)CCCC[C@H](N[*:1])C(=O)[*:2]; Trp(7-Me) = Cc1cccc2c(C[C@H](N)C(=O)O)c[nH]c12; Trp(1-Me) = Cn1cc(C[C@H](N)C(=O)O)c2ccccc21; 2Nal = N[C@@H](Cc1ccc2ccccc2c1)C(=O)O; 3Pal = N[C@@H](Cc1cccnc1)C(=O)O; Aun = NCCCCCCCCCCC(=O)O; Thp = NC1(C(=O)O)CCOCC1; Me2NCH2CH2 = CN(C)CC*; Aib = CC(C)(N)C(=O)O; Sar = CNCC(=O)O
quantity-name: remaining at 2 h, 1 µM (%)
Number only, in %; omit the unit.

*Q* State the recorded remaining at 2 h, 1 µM for this entry: CN(C)CCOc1ccc(C[C@@H]2NC(=O)C3(CCOCC3)NC(=O)[C@H](CCC(N)=O)NC(=O)[C@H](Cc3cn(C)c4ccccc34)NC(=O)CCCCN(C)CCCCN(C)CCCC[C@@H](C(=O)NCC(=O)N[C@@H](Cc3cccnc3)C(=O)N(C)CC(N)=O)NC(=O)C(C)(C)NC(=O)[C@H](Cc3ccc4ccccc4c3)NC2=O)cc1 [compound 30] ([Trp(1-Me)]Q[Thp]Y(Me2NCH2CH2)[2Nal][Aib][Lys(Me,(CH2)4NMe(CH2)4CO)]G[3Pal][Sar]-NH2; lactam N-7)
*A* 87

Let's switch to this compound now.
*Q* Requested read-out: remaining at 2 h, 1 µM. Entry: Cc1cccc2c(C[C@@H]3NC(=O)CCCCCCCCCCNC(=O)CC[C@@H](C(=O)N[C@@H](CC(N)=O)C(=O)N[C@@H](Cc4cccnc4)C(=O)N(C)CC(N)=O)NC(=O)C(C)(C)NC(=O)[C@H](Cc4ccc5ccccc5c4)NC(=O)[C@H](Cc4ccc(OCCN(C)C)cc4)NC(=O)C(C)(C)NC(=O)[C@H](CCC(N)=O)NC3=O)c[nH]c12 [compound 35] ([Aun][Trp(7-Me)]Q[Aib]Y(Me2NCH2CH2)[2Nal][Aib]EN[3Pal][Sar]-NH2; lactam N-8)
*A* 88
